Here the recorded interaction score is given for each entry.
Assayed System: T1, P7A-bS
T1 chain: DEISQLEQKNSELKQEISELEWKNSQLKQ
Protocol Details: two-hybrid library CCNG1;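 further: natural log of median RNA to DNA barcode read ratio; higher means stronger binding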
No unit in the answer, please; the number alone is enough.

Give the measured interaction score of DENSQLEQKISELKQKNSELKWEISQLEQ [P5A-bS] .
-1.3

Give the measured interaction score of DKNSQLKQEISELEQENSELEWKISQLKQ [P6A-bS] .
1.24

Give the measured interaction score of DEISQLEQKNSELKQEISELEWKNSQLKQ [P7A-bS] .
-1.32

Give the measured interaction score of DENSQLEQEISELEQEISELEWKNSQLKQ [P11A-bS] .
-1.25

Give the measured interaction score of DKNSQLKQENSELEQKISELKWKISQLKQ [P10A-bS] .
-0.464

Give the measured interaction score of DKISQLKQKNSELKQKNSELKWKISQLKQ [P2A-bS] .
-0.792

Give the measured interaction score of DEISQLEQEISELEQKNSELKWKNSQLKQ [P3A-bS] .
-0.377

Give the measured interaction score of DKNSQLKQKISELKQKISELKWENSQLEQ [P12A-bS] .
-0.873

Give the measured interaction score of DKISQLKQKISELKQENSELEWENSQLEQ [P4A-bS] .
-0.905

Give the measured interaction score of DEISQLEQENSELEQENSELEWEISQLEQ [P1A-bS] .
-1.96
